Hey, just so you know, these numbers are from PubChem BioAssay (Tox21).

- EXPERIMENTAL PROTOCOL: Nuclear factor erythroid 2-related factor 2/antioxidant responsive element (Nrf2/ARE) small molecule agonists: qHTS cell viability counter screen in human keratinocytes (AID 1919968); further: nearly all actives have a fitted effect of over 55% in size
- CONDITION DESCRIPTION: KeratinoSens HaCaT ARE cells viability, CellTiter-Fluor, 24 h; series mostly up to 92.4 µM
Records with an inconclusive call do not appear. Active and inactive are the calls of the source. The call rests on the fitted dose curve; in most records, active means well fitted cell-killing curve with a large enough effect in the repeat runs; inconclusive means weak or mixed curves, or effect the other way; inactive means flat fitted curve, though single readings scatter.
Outcome codes: active, inactive

[[record]]
compound = "CCOc1cc(OCC)c(C(C)=O)cc1OCC"
discrete_label = "inactive"

[[record]]
compound = "NC(=O)N(O)[C@@H]1C=C[C@H](Oc2cccc(Oc3ccc(F)cc3)c2)C1"
discrete_label = "inactive"

[[record]]
compound = "CCCCCCCCC1CO1 (stereo not given)"
discrete_label = "inactive"

[[record]]
compound = "CCCCCCC(CO)CCCC (stereo not given)"
discrete_label = "inactive"

[[record]]
compound = "CC(=O)OCC[N+](C)(C)C"
discrete_label = "inactive"

[[record]]
compound = "CCc1cccc(CC)c1"
discrete_label = "inactive"

[[record]]
compound = "COc1cc2[nH]c(=O)[nH]c(=O)c2cc1OC"
discrete_label = "inactive"

[[record]]
compound = "Nc1ccnc(=O)[nH]1"
discrete_label = "inactive"

[[record]]
compound = "OCCC(F)(F)C(F)(F)C(F)(F)C(F)(F)C(F)(F)C(F)(F)C(F)(F)C(F)(F)F"
discrete_label = "inactive"

[[record]]
compound = "Cc1cc(NS(=O)(=O)c2ccc(N)cc2)nc(C)n1"
discrete_label = "inactive"

[[record]]
compound = "CC(CC(=O)O)CC(C)(C)C (stereo not given)"
discrete_label = "inactive"

[[record]]
compound = "CC(C)[C@H](N)C(=O)OCCOCn1cnc2c(=O)[nH]c(N)nc21"
discrete_label = "inactive"

[[record]]
compound = "C[N+](C)(C)CCCCCCCCCC[N+](C)(C)C"
discrete_label = "inactive"

[[record]]
compound = "O=C(CCC1CCN(Cc2ccccc2)CC1)c1ccc2c(c1)NCCCC2"
discrete_label = "inactive"

[[record]]
compound = "COc1c(Br)cc(Br)c(C)c1Br"
discrete_label = "inactive"

[[record]]
compound = "CCOC(=O)CC"
discrete_label = "inactive"

[[record]]
compound = "CCCCCO"
discrete_label = "inactive"

[[record]]
compound = "ClC1=C(Cl)C1(Cl)Cl"
discrete_label = "inactive"

[[record]]
compound = "CCCCOC(=O)/C=C\\C(=O)OCCCC"
discrete_label = "inactive"

[[record]]
compound = "CCCCCCCCOc1ccccc1C(=O)Nc1ccc(C(=O)OCC[N+](C)(CC)CC)cc1"
discrete_label = "inactive"

[[record]]
compound = "Cc1cc(O)c(C(C)(C)C)cc1C(C)(C)C"
discrete_label = "active"

[[record]]
compound = "Nc1nc(Cl)nc2c1ncn2[C@@H]1O[C@H](CO)[C@@H](O)[C@@H]1F"
discrete_label = "inactive"

[[record]]
compound = "Cc1ccc(-n2[nH]c(C)c(N=Nc3cccc(-c4cccc(C(=O)O)c4)c3O)c2=O)cc1C"
discrete_label = "active"

[[record]]
compound = "O=NN(CCCl)C(=O)NCCCl"
discrete_label = "inactive"

[[record]]
compound = "O=C(NCCO[N+](=O)[O-])c1cccnc1"
discrete_label = "inactive"

[[record]]
compound = "Clc1ccc2n[nH]nc2c1"
discrete_label = "inactive"

[[record]]
compound = "c1ccc(C[P+](c2ccccc2)(c2ccccc2)c2ccccc2)cc1"
discrete_label = "inactive"

[[record]]
compound = "CCCCCCCCCCCCCCCC/C=C/C1CC(=O)OC1=O (stereo not given)"
discrete_label = "inactive"

[[record]]
compound = "CCCCC/C=C/CC(=O)OC"
discrete_label = "inactive"

[[record]]
compound = "NC(=O)CC[C@@H]1NC(=O)[C@H](Cc2ccccc2)NC(=O)[C@H](Cc2ccc(O)cc2)NC(=O)CCSSC[C@@H](C(=O)N2CCC[C@H]2C(=O)N[C@@H](CCCN=C(N)N)C(=O)NCC(N)=O)NC(=O)[C@H](CC(N)=O)NC1=O"
discrete_label = "inactive"

[[record]]
compound = "CC1=C(C)C(=O)C(C(CCCCCC(=O)O)c2ccccc2)=C(C)C1=O (stereo not given)"
discrete_label = "inactive"

[[record]]
compound = "O=C(O)c1c(O)c(-c2ccccc2)nc2ccccc12"
discrete_label = "inactive"

[[record]]
compound = "COc1ccc(N)c([N+](=O)[O-])c1"
discrete_label = "inactive"

[[record]]
compound = "C/C=C(\\C)C(=O)OCCC(C)CCC=C(C)C (stereo not given)"
discrete_label = "inactive"

[[record]]
compound = "CCCCOCCOC(=O)c1cccnc1"
discrete_label = "inactive"

[[record]]
compound = "CCCCOC(=O)[C@@H](C)Oc1ccc(Oc2ccc(C(F)(F)F)cn2)cc1"
discrete_label = "inactive"

[[record]]
compound = "Cc1ccc(Cl)cc1Cl"
discrete_label = "inactive"

[[record]]
compound = "Nc1nc(-c2ccccc2)c(Br)c(=O)[nH]1"
discrete_label = "inactive"

[[record]]
compound = "CCCCCOC(=O)CCCC"
discrete_label = "inactive"

[[record]]
compound = "CC(C(=O)O)c1ccc(/C=C2\\CCCCC2=O)cc1 (stereo not given)"
discrete_label = "inactive"

[[record]]
compound = "CC[C@H]1OC(=O)[C@H](C)[C@@H](O[C@H]2C[C@@](C)(OC)[C@@H](O)[C@H](C)O2)[C@H](C)[C@@H](O[C@@H]2O[C@H](C)C[C@H](N(C)C)[C@H]2O)[C@](C)(O)C[C@@H](C)C(=O)[C@H](C)[C@@H](O)[C@]1(C)O"
discrete_label = "inactive"

[[record]]
compound = "CCN(CC)CCOc1ccccc1C(=O)CCc1ccccc1"
discrete_label = "inactive"

[[record]]
compound = "CO[Si](C)(OC)c1ccccc1"
discrete_label = "inactive"

[[record]]
compound = "Cc1c(C(C)C)c(=O)n(-c2ccccc2)n1C"
discrete_label = "inactive"

[[record]]
compound = "Cc1ccc2c(c1)C(=O)c1ccccc1C2=O"
discrete_label = "inactive"

[[record]]
compound = "O=C(CCCCCCCCc1cccnc1)N1CCC(C=C(c2ccccc2)c2ccccc2)CC1"
discrete_label = "active"

[[record]]
compound = "CCOC(=O)c1cnc2c(cnn2CC)c1NN=C(C)C"
discrete_label = "inactive"

[[record]]
compound = "Oc1ccccc1Cc1ccccc1O"
discrete_label = "inactive"

[[record]]
compound = "COc1cccc(O)c1"
discrete_label = "inactive"

[[record]]
compound = "C=CCOc1nc(OCC=C)nc(OCC=C)n1"
discrete_label = "inactive"

